- measuredOn: T1, human CD3 epsilon/delta heterodimer, biotin labeled (human, UniProt P04234 22-105, biotin labeled)
- T1 construct: bought (Acro Biosystems); also called Human CD3e/d
- procedureDetails: SPR, biotinylated CD3e/d on SA chip;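 note: analytes injected over immobilized CD3 heterodimer, association 60-120 s and dissociation 120-420 s, rate and affinity constants obtained by fitting sensorgrams to a 1:1 binding model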
attributeMeasured: kon (M⁻¹ s⁻¹)
Your answer should be a plain number; it is taken to be in M⁻¹ s⁻¹.

binder: ULBP2xCD3 bispecific CD58 fusion containing CD3 variant CD3-A2 (bispecific antibody, V domains shown) VH: EVQLLESGGGLVQPGGSLKLSCAASGFTFNTYAMNWVRKAPGKGLEWVARIRSKYNNYATYYADSVKDRFTISRDDSKNTAYLQMNNLKTEDTAVYYCVRHGNFGNSYVSWFAYWGQGTLVTVSS VL: ELVVTQEPSLTVSPGGTVTLTCRSSTGAVTTSNYANWVQDKPGQAPRGLIGDTNKRAPGTPARFSGSLLGGKAALTLSGVQPEDEAEYYCALWYSNLWVFGGGTKLTVL
reported: 257000

Query: Could you tell me which kon is on file for ULBP2xCD3 bispecific CD58 fusion containing CD3 variant CD3-01 (bispecific antibody, V domains shown) VH: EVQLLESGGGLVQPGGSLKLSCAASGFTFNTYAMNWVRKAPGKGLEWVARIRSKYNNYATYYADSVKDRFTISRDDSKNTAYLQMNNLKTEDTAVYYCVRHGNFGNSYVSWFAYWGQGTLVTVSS VL: ELVVTQEPSLTVSPGGTVTLTCRSSTGAVTTSNYANWVQDKPGQAPRGLIGGTNKRAPGTPARFSGSLLGGKAALTLSGVQPEDEAEYYCALWYSNLWVFGGGTKLTVL ?
Reply: 1.76e+06

Query: Param item: ULBP2xCD3 bispecific CD58 fusion containing CD3 variant CD3-A6 (bispecific antibody, V domains shown) VH: EVQLLESGGGLVQPGGSLKLSCAASGFTFNDYAMNWVRKAPGKGLEWVARIRSKYNNYATYYADSVKDRFTISRDDSKNTAYLQMNNLKTEDTAVYYCVRHGNFGNSYVSWFAYWGQGTLVTVSS VL: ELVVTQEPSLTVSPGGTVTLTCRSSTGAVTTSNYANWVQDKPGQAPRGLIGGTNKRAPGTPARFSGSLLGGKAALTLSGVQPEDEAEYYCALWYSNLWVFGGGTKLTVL
Reply: 640000
